# Test system: UO-31 renal
# Assay Notes: NCI-60 one-dose screen, 48 h
# Run Conditions: 10 µM unless noted
This is part of a sample that, as a whole, favours compounds with a hit. Of some 83,000 tested, about 20% had one in any assay. Active and inactive are the calls of the source. Rule for the calls: active = growth percent below 10; inactive = the rest.
Parameter call: string, one of True for active, False for inactive

Look over these answered cases.
Sample Smiles: NC(N)=Nc1nc2ccccc2o1
Category: False
--
Sample Smiles: CN(C)CCN1C(=O)c2ccc3c4c(ccc(c24)C1=O)C(=O)N(CCN=C=S)C3=O
Category: True
--
Sample Smiles: C=C[C@@H]1C[C@@H]2Cc3c(C)cc(C)cc3N1O2
Category: False

I would be grateful if you could indicate the recorded call for CC(=O)Nc1nc(N)nc(NC(C)=O)c1N=O .
False

###

# Test system: A549/ATCC NSCLC
# Assay Notes: NCI-60 one-dose screen, 48 h (100 = growth as untreated, 0 = no growth, -100 = all killed)
# Run Conditions: 10 µM unless noted
# Protocol: Growth inhibition of the A549/ATCC human Non-Small Cell Lung tumor cell line is measured as a screen for anti-cancer activity. Cells are grown in 96 well plates and exposed to the test compound for 48 hours. Compounds are tested at a single concentration, which is 10^-5 M for most compounds. The reported endpoint is percent growth (GI% or GIPRCNT), where numbers from 0 - 100% represent growth inhibition, and numbers from -100% - 0 represent cell death. […]
The panel holds about 83,000 compounds, 20% with a hit somewhere; the sample as a whole holds those more often.
Classify: t when growth is strictly less than 50%; f when growth is not.

Below are worked cases with known answers.
Molecule: O=C(NNC(=O)N1c2ccccc2C=Cc2ccccc21)c1ccc2ccccc2c1
Category: f
//
Molecule: O=C(NCCNc1nccc(-n2ccc3cccnc32)n1)c1ccc(C(F)(F)F)cc1
Category: f

Determine if COc1ccc(Nc2nc(N)nc3c2CCN(Cc2ccc(OC)cc2OC)C3=O)cc1 shows growth strictly lower than 50%.
f

API: query returns whether the molecule falls strictly under 50% in growth. Query: COc1ccc(-c2[nH]nc(N)c2-c2cc(OC)c3c(c2)OCO3)cc1
f

Consider the molecule S=c1[nH]nc(-c2cc3ccc2CCc2ccc(cc2)CC3)n1-c1ccccc1 . Is its growth strictly less than 50%?
f

Is 50% strictly greater than the molecule's reported growth? molecule: CC(C)(C)n1cc(-c2ccnc(NCCNS(=O)(=O)c3ccc(F)cc3)c2)c(-c2cccc(O)c2)n1
t

Given FC(F)(F)c1cccc(-c2cn3c(ccc4ccccc43)n2)c1 , is recorded growth strictly lower than 50%?
f

Confirm or reject: growth of COc1ccc(-c2ccc(C)n2-c2ccc(-c3nc4ccccc4s3)cc2)cc1 lies strictly below 50%
f

Lab log: compare recorded growth with 50%; is it strictly lower for C=C1C(=O)O[C@H]2[C@H]1CC/C(Cn1cc(CNC(=O)/C=C/c3c[nH]c4ccccc34)nn1)=C\CC[C@@]1(C)O[C@@H]21 ?
f

Determine whether this molecule shows growth lower than 50% (ties excluded): C=C1CCC2C(C)(CO)C(O)CCC2(C)C1CC(NCc1ccccc1)C1=CCOC1=O (stereo not drawn)
f

Is 50% strictly greater than the molecule's reported growth? molecule: COc1cc(NC(N)=NCCC(C)(C)c2ccc(C(F)(F)F)cc2)ncc1C#N
t

growth under 50%? Item: COc1ccc2[nH]c(=O)c3c4ccccc4cn3c2c1
t
